- Test system: Staphylococcus epidermidis 222
- Test: MIC, standard agar-dilution assay (Table IX)
- Format: cell-based
- Condition Info: read-out: MIC
Measured Parameter: MIC

Use these answered entries as a reference point.
Molecule	Target Under Test	MIC
CCC1OC(=O)CC(O)C(C)C(OC2OC(C)C(O)C(N(C)C)C2O)C(CCN2CCC3CCCCC3C2)CC(C)C(=O)C=CC(C)=CC1COC1OC(C)C(O)C(OC)C1OC (centres unmarked)	Staphylococcus epidermidis 222	0.125 µg/mL
CCC1OC(=O)CC(O)C(C)C(OC2OC(C)C(O)C(N(C)C)C2O)C(CCN2CCCCCCC2)CC(C)C(=O)C=CC(C)=CC1COC1OC(C)C(O)C(O)C1OC (centres unmarked)	Staphylococcus epidermidis 222	0.5 µg/mL
CCC1OC(=O)CC(O)C(C)C(OC2OC(C)C(O)C(N(C)C)C2O)C(CCN2CCc3ccccc32)CC(C)C(=O)C=CC(C)=CC1COC1OC(C)C(O)C(OC)C1OC (centres unmarked)	Staphylococcus epidermidis 222	0.25 µg/mL
CCC1OC(=O)CC(O)C(C)C(OC2OC(C)C(O)C(N(C)C)C2O)C(CCN2CCC(O)CC2)CC(C)C(=O)C=CC(C)=CC1COC1OC(C)C(O)C(OC)C1OC (centres unmarked)	Staphylococcus epidermidis 222	4 µg/mL

// next entry
Item CCC1OC(=O)CC(O)C(C)C(OC2OC(C)C(O)C(N(C)C)C2O)C(CCN2CC=CCC2)CC(C)C(=O)C=CC(C)=CC1COC1OC(C)C(O)C(OC)C1OC (centres unmarked) with Staphylococcus epidermidis 222 - MIC?
0.25 µg/mL

###

# maps each entry to its MIC
- Tested on: Pasteurella multocida 60A
- Test: MIC, broth-dilution microtiter test (Table X)
- Assay type: cell-based
- Condition Info: Avian isolate, read-out: MIC

Use these answered entries as a reference point.
Molecule	Target Under Test	Measured Parameter	Measured Value
CCC1OC(=O)CC(O)C(C)C(OC2OC(C)C(O)C(N(C)C)C2O)C(CCN2CCc3ccccc32)CC(C)C(=O)C=CC(C)=CC1COC1OC(C)C(O)C(OC)C1OC (stereo not drawn)	Pasteurella multocida 60A	MIC	25 µg/mL
CCC1OC(=O)CC(O)C(C)C(OC2OC(C)C(OC3CC(C)(O)C(O)C(C)O3)C(N(C)C)C2O)C(CCN2CCCCCCC2)CC(C)C(=O)C=CC(C)=CC1COC1OC(C)C(O)C(OC)C1OC (stereo not drawn)	Pasteurella multocida 60A	MIC	> 50 µg/mL

// next entry
Please report the recorded MIC for CCC1OC(=O)CC(O)C(C)C(OC2OC(C)C(OC3CC(C)(O)C(O)C(C)O3)C(N(C)C)C2O)C(CCN2CCCCCC2)CC(C)C(=O)C=CC(C)=CC1COC1OC(C)C(O)C(O)C1OC (stereo not drawn) .
> 50 µg/mL

###

- System: Escherichia coli TEM
- Test: MIC, standard agar-dilution assay (Table IX)
- Format: cell-based
- Condition Info: read-out: MIC
// NB: equality with 20 µg/mL counts as NO; only MIC strictly below is YES

Known results for compounds:
Compound	Target Under Test	Answer Label
CCC1OC(=O)CC(O)C(C)C(OC2OC(C)C(O)C(N(C)C)C2O)C(CCN2C3CCCCC3C3CCCCC32)CC(C)C(=O)C=CC(C)=CC1COC1OC(C)C(O)C(OC)C1OC (centres unmarked) [Compound D25]	Escherichia coli TEM	NO
CCC1OC(=O)CC(O)C(C)C(OC2OC(C)C(O)C(N(C)C)C2O)C(CCN2CCCCCCC2)CC(C)C(=O)C=CC(C)=CC1COC1OC(C)C(O)C(OC)C1OC (centres unmarked) [Compound D6]	Escherichia coli TEM	YES
CCC1OC(=O)CC(O)C(C)C(OC2OC(C)C(O)C(N(C)C)C2O)C(CCN2CCCCCCCC2)CC(C)C(=O)C=CC(C)=CC1COC1OC(C)C(O)C(OC)C1OC (centres unmarked) [Compound D7]	Escherichia coli TEM	YES
CCC1OC(=O)CC(O)C(C)C(OC2OC(C)C(O)C(N(C)C)C2O)C(CCN2CCC(N3CCCCC3)CC2)CC(C)C(=O)C=CC(C)=CC1COC1OC(C)C(O)C(OC)C1OC (centres unmarked) [Compound D13]	Escherichia coli TEM	NO
CCC1OC(=O)CC(O)C(C)C(OC2OC(C)C(O)C(N(C)C)C2O)C(CCN2C(C)CCCC2C)CC(C)C(=O)C=CC(C)=CC1COC1OC(C)C(O)C(OC)C1OC (centres unmarked) [Compound D41]	Escherichia coli TEM	NO
CCC1OC(=O)CC(O)C(C)C(OC2OC(C)C(OC3CC(C)(O)C(O)C(C)O3)C(N(C)C)C2O)C(CCN2CCCCCCC2)CC(C)C(=O)C=CC(C)=CC1COC1OC(C)C(O)C(O)C1OC (centres unmarked) [Compound M4]	Escherichia coli TEM	NO
CCC1OC(=O)CC(O)C(C)C(OC2OC(C)C(OC3CC(C)(O)C(O)C(C)O3)C(N(C)C)C2O)C(CCN2CCCCCC2)CC(C)C(=O)C=CC(C)=CC1COC1OC(C)C(O)C(O)C1OC (centres unmarked) [Compound M3]	Escherichia coli TEM	NO
CCC1OC(=O)CC(O)C(C)C(OC2OC(C)C(O)C(N(C)C)C2O)C(CCN2CCCC3CCCCC32)CC(C)C(=O)C=CC(C)=CC1COC1OC(C)C(O)C(OC)C1OC (centres unmarked) [Compound D20]	Escherichia coli TEM	NO
CCC1OC(=O)CC(O)C(C)C(OC2OC(C)C(O)C(N(C)C)C2O)C(CCN2CCCC(C)(C)C2)CC(C)C(=O)C=CC(C)=CC1COC1OC(C)C(O)C(OC)C1OC (centres unmarked) [Compound D40]	Escherichia coli TEM	YES
CCC1OC(=O)CC(O)C(C)C(OC2OC(C)C(O)C(N(C)C)C2O)C(CCN2CC3(C)CC2CC(C)(C)C3)CC(C)C(=O)C=CC(C)=CC1COC1OC(C)C(O)C(OC)C1OC (centres unmarked) [Compound D21]	Escherichia coli TEM	NO

Field: below-cutoff. Rule: recorded MIC strictly less than 20 µg/mL. Subject: CCC1OC(=O)CC(O)C(C)C(OC2OC(C)C(O)C(N(C)C)C2O)C(CCN2CCCC2)CC(C)C(=O)C=CC(C)=CC1COC1OC(C)C(O)C(OC)C1OC (centres unmarked) [Compound D1, 20-DH-DO-20-(pyrrolidin-1-yl)desmycosin]
NO

Field: below-cutoff. Rule: recorded MIC strictly less than 20 µg/mL. Subject: CCC1OC(=O)CC(O)C(C)C(OC2OC(C)C(OC3CC(C)(O)C(O)C(C)O3)C(N(C)C)C2O)C(CCN2CC3CCC(CC3)C2)CC(C)C(=O)C=CC(C)=CC1COC1OC(C)C(O)C(OC)C1OC (centres unmarked) [Compound T13]
NO

Field: below-cutoff. Rule: recorded MIC strictly less than 20 µg/mL. Subject: CCC1OC(=O)CC(O)C(C)C(OC2OC(C)C(O)C(N(C)C)C2O)C(CCN2CCC(O)CC2)CC(C)C(=O)C=CC(C)=CC1COC1OC(C)C(O)C(OC)C1OC (centres unmarked) [Compound D3]
NO

Field: below-cutoff. Rule: recorded MIC strictly less than 20 µg/mL. Subject: CCC1OC(=O)CC(O)C(C)C(OC2OC(C)C(O)C(N(C)C)C2O)C(CCN2CCCCCC2)CC(C)C(=O)C=CC(C)=CC1COC1OC(C)C(O)C(OC)C1OC (centres unmarked) [Compound D5]
YES

###

- Tested on: Mycoplasma synoviae 40A
- Test: MIC, broth-dilution microtiter test (Table X)
- Format: cell-based
- Condition Info: Mycoplasmopsis synoviae, read-out: MIC
Measured Parameter: MIC (µg/mL)
Write the answer as a number in µg/mL, unit excluded.

Use these answered entries as a reference point.
Compound	Measured Parameter	Measured Value
CCC1OC(=O)CC(O)C(C)C(OC2OC(C)C(O)C(N(C)C)C2O)C(CCN2C[C@H](C)C[C@H](C)C2)CC(C)C(=O)C=CC(C)=CC1COC1OC(C)C(O)C(OC)C1OC (stereo partly shown)	MIC	0.78
CCC1OC(=O)CC(O)C(C)C(OC2OC(C)C(O)C(N(C)C)C2O)C(CCN2CCC(N3CCCCC3)CC2)CC(C)C(=O)C=CC(C)=CC1COC1OC(C)C(O)C(OC)C1OC (stereo not shown)	MIC	1.56
CCC1OC(=O)CC(O)C(C)C(OC2OC(C)C(O)C(N(C)C)C2O)C(CCN2CCc3ccccc3C2)CC(C)C(=O)C=CC(C)=CC1COC1OC(C)C(O)C(OC)C1OC (stereo not shown)	MIC	0.39
CCC1OC(=O)CC(O)C(C)C(OC2OC(C)C(O)C(N(C)C)C2O)C(CCN2CC3CCC(CC3)C2)CC(C)C(=O)C=CC(C)=CC1COC1OC(C)C(O)C(OC)C1OC (stereo not shown)	MIC	0.39
CCC1OC(=O)CC(O)C(C)C(OC2OC(C)C(O)C(N(C)C)C2O)C(CCN2CCCCC2)CC(C)C(=O)C=CC(C)=CC1COC1OC(C)C(O)C(OC)C1OC (stereo not shown) [Compound D2, 20-DH-DO-20-(piperidin-1-yl)desmycosin]	MIC	0.78
CCC1OC(=O)CC(O)C(C)C(OC2OC(C)C(O)C(N(C)C)C2O)C(CCN2CC=CCC2)CC(C)C(=O)C=CC(C)=CC1COC1OC(C)C(O)C(OC)C1OC (stereo not shown)	MIC	0.78
CCC1OC(=O)CC(O)C(C)C(OC2OC(C)C(O)C(N(C)C)C2O)C(CCN2CCC3(CC2)OCCO3)CC(C)C(=O)C=CC(C)=CC1COC1OC(C)C(O)C(OC)C1OC (stereo not shown)	MIC	0.195
CCC1OC(=O)CC(O)C(C)C(OC2OC(C)C(O)C(N(C)C)C2O)C(CCN2CC3(C)CC2CC(C)(C)C3)CC(C)C(=O)C=CC(C)=CC1COC1OC(C)C(O)C(OC)C1OC (stereo not shown)	MIC	0.39
CCC1OC(=O)CC(O)C(C)C(OC2OC(C)C(O)C(N(C)C)C2O)C(CCN2CCCCCC2)CC(C)C(=O)C=CC(C)=CC1COC1OC(C)C(O)C(O)C1OC (stereo not shown)	MIC	1.56

// next entry
Item CCC1OC(=O)CC(O)C(C)C(OC2OC(C)C(O)C(N(C)C)C2O)C(CCN2CC=C(c3ccccc3)CC2)CC(C)C(=O)C=CC(C)=CC1COC1OC(C)C(O)C(OC)C1OC (stereo not shown) with Mycoplasma synoviae 40A - MIC?
0.78

From: patent US4820695A
